Ref: ChEMBL document CHEMBL1201862

Tested on: HCT-116
Assay Notes: NCI tumour cell line growth inhibition, 48 h
Active and inactive are the calls of the source. Rule as the data show it: active = GI50 up to about 1.1 µM and inactive = higher.
Parameter: GI50

[
  {
    "Compound": "NC(=S)N/N=C1/C(=O)N(c2ccc(Cl)cc2Cl)C(=O)C(=O)C1c1nc2ccccc2s1 (configuration not stated)",
    "Test Target": "HCT-116",
    "Reading": "> 100 µM (inactive)"
  }
]

Problem: Sample `N=C(c1ccccc1)N(c1ccccc1)c1ccccc1` — what was its GI50?
Result: 40.5 µM (inactive)

Problem: GET /values?readout=GI50&item= `CN(C)CCNC(=O)c1nc([N+](=O)[O-])cn1C`
Result: > 100 µM (inactive)
